Recorded pIC50 values for a group of compounds are listed next.
molecular target: human protease activated receptor 1 (PAR1) (Homo sapiens, UniProt P25116); construct: the cell stably expresses the endogenous human PAR1 receptor; endogenous in cells; only the mitochondrial aequorin is recombinant; assay: Cellular functional in vitro test (PAR1 test cell, aequorin luminescence); conditions: HEK293-derived PAR1 test cell; PAR1 agonist at EC50; calcium/aequorin luminescence
Sequence (P25116 22-425): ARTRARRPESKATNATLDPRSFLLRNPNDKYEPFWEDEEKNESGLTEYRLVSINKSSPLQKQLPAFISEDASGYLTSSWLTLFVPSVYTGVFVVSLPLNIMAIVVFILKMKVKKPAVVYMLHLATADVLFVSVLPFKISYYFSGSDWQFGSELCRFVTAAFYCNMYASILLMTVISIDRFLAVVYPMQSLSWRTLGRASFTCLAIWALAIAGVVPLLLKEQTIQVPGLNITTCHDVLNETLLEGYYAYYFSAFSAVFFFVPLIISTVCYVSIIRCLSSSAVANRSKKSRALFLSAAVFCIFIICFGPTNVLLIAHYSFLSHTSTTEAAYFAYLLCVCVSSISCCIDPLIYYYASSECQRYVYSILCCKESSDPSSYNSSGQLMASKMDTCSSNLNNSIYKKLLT
Interpret pIC50 as the negative base-10 log of the concentration measured in mol/L.

Example results:
compound: COC1(c2noc(C3CC(c4ccc(CC(F)(F)F)cc4)CN(C(=O)N4CCS(=O)(=O)CC4)C3)n2)CC1 (racemic)
pIC50: 7.80
--
compound: CCOCCc1noc(C2CC(c3ccc(C(F)(F)F)cc3)CN(C(=O)N3CCS(=O)(=O)CC3)C2)n1 (single isomer, unassigned)
pIC50: 7.49

Could you now look at the following compound, please?
Per the record, CCc1ccc(C2CC(c3nc(C4CC4)no3)CN(C(=O)N3CCS(=O)(=O)CC3)C2)cc1 (single isomer, unassigned) has pIC50 of 8.29

---

biological target: human protease activated receptor 1 (PAR1) (Homo sapiens, UniProt P25116); construct: the cell stably expresses the endogenous human PAR1 receptor; endogenous in cells; only the mitochondrial aequorin is recombinant; test: Cellular functional in vitro test (PAR1 test cell, aequorin luminescence); conditions: HEK293-derived PAR1 test cell; PAR1 agonist at EC50; calcium/aequorin luminescence
pIC50: −log10 of the molar value.
Threshold rule: pIC50 greater than or equal to 8 is Condition met; below that, Condition not met.

Answered cases to consult:
compound: COCCc1noc(C2CC(c3ccc(OC(F)(F)F)cc3)CN(C(=O)N3CC[S+]([O-])CC3)C2)n1 (racemic) [Example 1]
cat: Condition not met

compound: COCCc1noc(C2CC(c3ccc(OC(F)(F)F)cc3)CN(C(=O)N3CCS(=O)(=O)CC3)C2)n1 (single isomer, unassigned) [Example 8]
cat: Condition not met

compound: CC(F)(F)c1ccc(C2CC(c3nc(C4CC4)no3)CN(C(=O)N3CCS(=O)(=O)CC3)C2)cc1 (single isomer, unassigned) [Example 54]
cat: Condition met

compound: CC(F)(F)c1ccc(C2CC(c3nc(C4CC4)no3)CN(C(=O)N3CC[S+]([O-])CC3)C2)cc1 (single isomer, unassigned) [Example 52]
cat: Condition met

Lab note: next compound to report on.
Hi team, for O=C(N1CC[S+]([O-])CC1)N1CC(c2ccc(C(F)(F)F)cc2)CC(c2nc(C3CC3)no2)C1 (racemic) [Example 20] , is the recorded pIC50 at or above 8?
Condition not met
